test: yeast display, Sf9 membrane polyspecificity reagent, FACS + sequencing; frameworks hold sequencing errors
readout_kind: polyreactivity (PSR sort gate)

Note polyreactivity (PSR sort gate) for the sequence shown: `QVQLVESGGGLVQAGGSLRLSCAASGLTFKTYAMGWYRQAPGKERELVAAISRSGGSTSYADSVKGRFTISRDNAKNTVYLQMNSLKPEDTAVYYCAAKTYEPRKYEYWGQGTQVTVSS`
high polyreactivity

Note polyreactivity (PSR sort gate) for the sequence shown: `QVQLVESGGGLVQAGGSLRLSCAASGFILYSYAMGWYRQAPGKERELVAGISIGGITNYADSVKGRFTISRDNAKNTVYLQMNSLKPEDTAVYYCATDGTTYIWDGDYWGQGTQVTVSS`
low polyreactivity

Note polyreactivity (PSR sort gate) for the sequence shown: `QVPLVESGGGLVQAGGSLRLSCAASGHTFRFYTMGWYRQAPGKEREFVAAIRRRTGSTYYADSVKGRFTISRDNAKNTVYLQMNSLKPEDTAVYYCAAESRYYYRFYYGYHYDYWGQGTQVTVSS`
high polyreactivity

Note polyreactivity (PSR sort gate) for the sequence shown: `QVQLVESWGGLVQAGGSLRLSCAASGSTFIQNAMGWYRQAPGKERELVAAITSGGGTNYADSVKGRFTISRDNAQNTVYLQMNSLKPEDTAVYYCAAEPFNYDDFWFGWEYQYEYWGQGTQVTVSS`
low polyreactivity

Note polyreactivity (PSR sort gate) for the sequence shown: `QVHLVESGGGLVQAGGSLRLSCAASGFIFKFDAMGWYRQAPGKEREMVAAITASSGRTNYADSVKGRFTISRDNAKNTVYLHMNSLKPEDTAVYFCAARRWPKYSAYRYDYWGQGTQVTVSS`
high polyreactivity

Note polyreactivity (PSR sort gate) for the sequence shown: `QVQLVESGGGLVQAGGSLRLSCAASGSTFLHYAMGWYRQAPGKERELVAAISFSGVRTYYADSVKGRFTISRDNAKNTVYLQMNSLKPEDTAVYYCAADGHHADYDYWGQGTQVTVSS`
low polyreactivity

Note polyreactivity (PSR sort gate) for the sequence shown: `QVQLVESGGGLVQAGGSLRLSCAASGSNFGWYAMGWYRQAPGKERELVAAITFSSVSTYYADSEKGRFTISRDNAKNTVYLQMNSLKPEDTAVYYCAAVVYYTFDYWGLGTQVTVSS`
low polyreactivity

Note polyreactivity (PSR sort gate) for the sequence shown: `QVQLVESGGRLVQAGGSLRLSCAASGFTFRRYAMGWYRQAPGKERELVAVITTAGSTNYADSVKGRFTISRDNAKNTVYLQMNTLKPEDTAVYYCATDNGTRKRRYDYWGQGTQVTVSS`
low polyreactivity

***
Note polyreactivity (PSR sort gate) for the sequence shown: `QVQLVESEGGLVQAGGSLRLSCAASGRTFHYYAMGWYRQAPGKERELVAAISSTGGSTYYADSVKGRFTISRDNAKNTVYLQMNSLKPEDPAVYYCAARRSRGYSPTYDYWGQGTQVTVSS`
high polyreactivity

Note polyreactivity (PSR sort gate) for the sequence shown: `QVKLVESGGGLVQAGGSLRLSCAASGIIFTFYSMGRYRQAPGKERELVAAITGSGGSTYYADSVKGRFTISRDNAKNSVYLQMNSLKPEDTAVYYCAADGPYGYYYGHYGYWGHGTQVTVSS`
low polyreactivity

Note polyreactivity (PSR sort gate) for the sequence shown: `QVKLVESGGGLVQAGRSLRLSFAASGSTFLYYGMGWYRQAPGKERELVATITWRGGRTYYADSVKGRFTISRDNAKNTVYLQMNSLKPEDTAVYYCAARVVGSYRKPYPYGLYYWGQGTQVTVSS`
high polyreactivity

====

test: yeast display, Sf9 membrane polyspecificity reagent, FACS + sequencing; frameworks hold sequencing errors
readout_kind: polyreactivity (PSR sort gate)

Note polyreactivity (PSR sort gate) for the sequence shown: `QVQLVESGGGLVQAGGSLRLSCAASGLTFGRYTMGWYRQAPGKERELVAAISYSGGSTYYADSVKGRFTISRDNAKNTVYLQMNSLKPEDTAVYYCAKRWTGLGGYYYWGQGTQVTVSS`
high polyreactivity

Note polyreactivity (PSR sort gate) for the sequence shown: `QVQLVESGGGLVQAGGSLRLSCADSGFTFYTYTMGWYRPAPGKERELVAVISRSGGSTYYADSVKGRFTISRDNAKNTVYLQMNSVKPEDTAVYYCNAGYWRFIDSYDYWGQGTQVTVSS`
high polyreactivity

====

test: yeast display, Sf9 membrane polyspecificity reagent, FACS + sequencing; frameworks hold sequencing errors
readout_kind: polyreactivity (PSR sort gate)

Note polyreactivity (PSR sort gate) for the sequence shown: `QVQLVDSGGGLVQAGGSLRLSCAPSGTTYPGYAMGWYRQAPGKERELFAAIDRGGSTSYADSVKGRFTISRDNAKITVYLQMNSLKPEDTAFYYCAAEASVVHKSSDYDSWGQCTQVTVSS`
low polyreactivity

Note polyreactivity (PSR sort gate) for the sequence shown: `QVQLVESGGGVVQAGGSLRLICAASGSTFGVYAMGWYRQAPGKERELFASISESGGNTYYADSVKGRFTISRDNAKNTVYLQMNSLKPDDTAVYYCNTDVVDVHYIQAYYWGQVTQVTVSS`
low polyreactivity

====

test: yeast display, Sf9 membrane polyspecificity reagent, FACS + sequencing; frameworks hold sequencing errors
readout_kind: polyreactivity (PSR sort gate)

Note polyreactivity (PSR sort gate) for the sequence shown: `QVQLHESGGGLVQAGGSLRLSCAASGTISYAGPMGWSRQAPGKEREFVAGIGVGSNTNYADSVKGRYTIIRANAKNTVALQMTCLKPEDTAVYYCAVGGYAPLGRPYWGQGTHVTVSS`
low polyreactivity

Note polyreactivity (PSR sort gate) for the sequence shown: `QVQLVESGGGLVQAGGSLRLSCAASGLTFPPYAMGWYRQAPGKERELVATISFSTGNTYYADSVKGRFTISRDNAKNTVYLQLNSLKPEDTADYYCNKVFVLPYKFVAWFDSWGQGTQVTVSS`
low polyreactivity

====

test: yeast display, Sf9 membrane polyspecificity reagent, FACS + sequencing; frameworks hold sequencing errors
readout_kind: polyreactivity (PSR sort gate)

Take a look at these entries with their results.
Note polyreactivity (PSR sort gate) for the sequence shown: `QVQLVESGGGLVQAGGSLRLSWAASGFTFYRYAMGWYRQAPGKERELVAAITRSGSRTYYADSVKGRFTISRDNAKNTVYVQMNSLKPEDTAVYYCNTDGGDHPTARYGYWGQGTQVTVSS`
high polyreactivity

Note polyreactivity (PSR sort gate) for the sequence shown: `QVQLVESGGGLVQAGGSLRLSCAASGSIFVEYAMGWYRQAPGKERELVAGISSGGITSYADSVKGRFTISRDNAKNTVYLQMNSLKPEDTAGYYCATDPYKWFYSSYYLLQEVEYWGQGTQVTVSS`
low polyreactivity

Note polyreactivity (PSR sort gate) for the sequence shown: `QVQLLESGGGLVQAGGSLRLSCAASGNIFQVNAMGWYRQAPGKERELVASISRRGGSTNYADSVKGRFTISRDNAKNTVYLQMNSLKPEDTAVYYCAAVARRGSYLGQRLDYWGQGTQVTVSS`
high polyreactivity

Note polyreactivity (PSR sort gate) for the sequence shown: `QVQLVESGGGLVQAGGSLRLSCAASGSTFYYYVMGWYRQAPGKERELVAAISSGGHTNYADSVKGRFTISRDNAKNTVYLQMNILKPEDTAVYYCAAKPWRGTLLRYGYWGQGTQVTVSS`
high polyreactivity

Note polyreactivity (PSR sort gate) for the sequence shown: `QVQHVESGRGLVQAGGRLRLSCADSGMTFGYSAMGWYRPAPGKDRELVAAISGTAGDTYYADSVKGRFTISRDNAKNTVYLQMNSLKAEVTAVYYCAKVKRWFGVTIELDYWGQGTQGTVSS`
low polyreactivity

***
Note polyreactivity (PSR sort gate) for the sequence shown: `QDQHVESVGGLVQAGGSLRLSCAASGRTFYRYAMGWSRQAPGKEREFVAAISHGGSNTRYADSVKGRFTISRDNAKNTVYLQMKSLKPEDTAVYYCAARAYQHYNWGQGTQVTVSS`
high polyreactivity

Note polyreactivity (PSR sort gate) for the sequence shown: `QVQLVESGGGLVQAGGSLRLSCAASGLTFRYYAMGWYRQEPGKERELVATITRAGRTNYADSVKGRFTISRDNAKNTVYLQMNSLKPEDTAVYYCNAKQSGKYPRVVGYDYWGQGTQVTVSS`
high polyreactivity

Note polyreactivity (PSR sort gate) for the sequence shown: `QVQLVESGGGLVQAGGSLRLSCAASGRTFTGNTMGWYRQAPGKERELVAAITKRGGSTYYADSVKGRFTISRDNAKNTVYLQMNSLKPEDTAVYYCAATSGVYRVGIIKYDYWGQGTQVTVSS`
high polyreactivity

Note polyreactivity (PSR sort gate) for the sequence shown: `QVQLVESGGGLVQAGGILRLSCAASGGIFADYAMGWYRQAPGKERELVADISARGGSTYYADSVKGRFTISRDNAKNTVYLQMNSLKPEDTAVYYCAADALGYDYYYWGQGTQVTVSS`
low polyreactivity

Note polyreactivity (PSR sort gate) for the sequence shown: `QVQLVESGGGLVQAGGSLRLSCAASGRIFRYNAMGWYRQAPGKERELVASISSSGGSTYYADSVKGRFTISRDTAKNTVYLQMNCLKPEDTAVYYCSAYPGDRHSRINLGYWGQGTQVTVSS`
high polyreactivity

Note polyreactivity (PSR sort gate) for the sequence shown: `KVQLVESGGGLVQAGGSLRLSCAASGSIFSFYTKGWYRQAPGKERELVAAINWSGSRTYYADSVKGRFTISRDNAKNTVYLQMNSLKPVDTAVYYCAAYLWFYVRYEYWGQGTQVTVSS`
high polyreactivity

Note polyreactivity (PSR sort gate) for the sequence shown: `QVQLVESGGGLVQAGGSLRLSCAASGLTFRIYAMGWYRQAPGKERELVAAISWNGGSTYYADSVKGRFTISRDNAMNTVYLQMNSLKPEDTAVYYFNADPSDRRYPHTWTKMGYWGQGTQVTVSS`
low polyreactivity

Note polyreactivity (PSR sort gate) for the sequence shown: `QVQLVESGGGLVQAGGSLRLSCAASGSIFDLNAMGWYRQAPGKERELVAAISKSGGSTYYADSVKGRFTISRDNAKNTVYLQMNSLKPEDTAVYYCAARYHEPGYSYKFWGQGTQVTVSS`
low polyreactivity

Note polyreactivity (PSR sort gate) for the sequence shown: `QVQLVESGGGLVQAGGSLRLSCAASGSIFTEYAMGWYRKAPGKERELVAVITLRGGSTYYADSVKGRFTISRDNAMNTVYLQMNSLKPEDTAVYYCAAVTLVSFWFDYWGQGTQVTVSS`
low polyreactivity

Note polyreactivity (PSR sort gate) for the sequence shown: `QVQLLESGGGLVLAGGRIRLSCAASGRTYRYTMGWNRQSPGKERELVAAISRSGGSTYYADSVKGRFTISRDNAKNSFYLQMNSLKPEDTAVYYCAKVIYRYNETYDYWGQGTQVTVSS`
high polyreactivity

Note polyreactivity (PSR sort gate) for the sequence shown: `QVPLVESGGGLVQAGGSLRLSCAASGSTLTSNAMGWYRQAPGKERELVAAIRSGGSTNYADSVKGRFTISRDNAKNTVYLQMNSLKPEDTAVYYCNTDFLWQGYGYSRVSYDYWGQGTQVTVSS`
low polyreactivity

Note polyreactivity (PSR sort gate) for the sequence shown: `QVQLVESGGGLVQAGGSLRLSCAASGSIFVTNAMGWYRQAPGKERELVAAIRWSGDSTYYADSVKGRFTISRDNAKNTVYLQMKSLKPEDTAVYYCDAESFRYIRLNYKYGDYYWGHGTQVTVSS`
high polyreactivity

Data provenance: the nanobody polyreactivity screen of Harvey et al. (2022)
